tested on: breast line MDA468; test: In vitro cell culture growth assay (MTS), MDA468; format: cell-based, human; details: Homo sapiens, 72 h, MDA468 cells, three days after drug treatment
test-readout: IC50 (µM)
The reply should be a number in µM, with the unit left off.

Use the examples below as a reference point.
| compound | units-of-measure | IC50 |
| --- | --- | --- |
| CC(=O)Nc1cccc(-c2nc(N3CCOCC3)c3cnn(C4CCN(Cc5ccccc5)CC4)c3n2)c1 | µM | 12 |
| CCCNC(=O)Nc1ccc(-c2nc(N3CCOCC3)c3cnn(C4CCN(C(=O)OCCC)CC4)c3n2)cc1 | µM | 1 |
| Nc1ccc(-c2nc(N3CCOCC3)c3cnn(C4CCN(C(=O)c5cccnc5)CC4)c3n2)c(F)c1 | µM | 14 |

Recorded result, CCNC(=O)Nc1ccc(-c2nc(N3CCOCC3)c3cnn(C4CCN(Cc5ccccc5)CC4)c3n2)cc1 [Example 253] , IC50: 0.4

###

system: breast line MDA468; test: In vitro cell culture growth assay (MTS), MDA468; type: cell-based, human; details: Homo sapiens, 72 h, MDA468 cells, three days after drug treatment
test-readout: IC50 (nM)
The reply should be a number in nM, with the unit left off.

Use the examples below as a reference point.
| molecule | units-of-measure | IC50 |
| --- | --- | --- |
| O=C(Nc1ccncc1)Nc1ccc(-c2nc(N3CCOCC3)c3cnn(C4CCN(C(=O)c5ccccc5)CC4)c3n2)cc1 | nM | 100 |
| COC(=O)N1CCC(n2ncc3c(N4CCOCC4)nc(-c4ccc(NC(=O)Nc5ccc(F)cc5F)cc4)nc32)CC1 | nM | 580 |
| CCCNC(=O)Nc1ccc(-c2nc(N3CCOCC3)c3cnn(C4CCN(Cc5ccccc5)CC4)c3n2)cc1 [Example 254] | nM | 1500 |

Now for a further molecule.
Recorded result, CCCNC(=O)Nc1ccc(-c2nc(N3CCOCC3)c3cnn(C4CCN(Cc5ccccc5)CC4)c3n2)cc1 [Compound 500] , IC50: 1500

###

test system: breast line MDA468; experiment: In vitro cell culture growth assay (MTS), MDA468; type: cell-based, human; conditions: Homo sapiens, 72 h, MDA468 cells, three days after drug treatment
test-readout: IC50 (nM)
The reply should be a number in nM, with the unit left off.

| compound | IC50 [nM] |
| --- | --- |
| CNC(=O)Nc1ccc(-c2nc(N3CCOCC3)c3cnn(C4CCN(Cc5cccnc5)CC4)c3n2)cc1Cl | 1800 |
| CNC(=O)Nc1ccc(-c2nc(N3CCOCC3)c3cnn(C4CCN(C(=O)OCC(C)C)CC4)c3n2)cc1 | 270 |
| CNC(=O)Nc1ccc(-c2nc(N3CCOCC3)c3cnn(C4CCN(C(=O)OCC(C)(C)C)CC4)c3n2)cc1 | 350 |
| CN(C)NC(=O)Nc1ccc(-c2nc(N3CCOCC3)c3cnn(C4CCN(Cc5ccccc5)CC4)c3n2)cc1 [Compound 290] | 8000 |
| O=C(NCCO)Nc1ccc(-c2nc(N3CCOCC3)c3cnn(C4CCN(Cc5ccccc5)CC4)c3n2)cc1 [Example 265] | 100 |

Recorded result, COCCN1CCC(n2ncc3c(N4CCOCC4)nc(-c4ccc5[nH]ccc5c4)nc32)CC1 [Compound 241] , IC50: 4200

Recorded result, "COC(=O)N1CCC(n2ncc3c(N4CCOCC4)nc(-c4ccc(NC(=O)NCCO)cc4)nc32)CC1" , IC50: 580

Source listed as patent US20080234262A1.
